tested on: SK-MEL-2 melanoma; test: NCI tumour cell line growth inhibition, 48 h; in the data active means GI50 below about 0.43 µM; inactive means the rest
Possible outcomes: active, inactive

{"Compound": "CCOc1cc(/C=C/C(=O)C(C(=O)/C=C/c2ccc(OC(=O)CNc3nc4ccccc4[nH]3)c(OCC)c2)C(=O)CNc2nc3ccccc3[nH]2)ccc1OC(=O)CNc1nc2ccccc2[nH]1", "Target of assay": "SK-MEL-2 melanoma", "Assigned class": "inactive"}
{"Compound": "CCOC(=O)c1ccc(NC(=O)NC2=NCCS2)cc1", "Target of assay": "SK-MEL-2 melanoma", "Assigned class": "inactive"}
{"Compound": "COc1ccc(-c2nc(-c3nc4cc(Cl)c(F)cc4[nH]3)c3ccccn23)cc1", "Target of assay": "SK-MEL-2 melanoma", "Assigned class": "inactive"}
{"Compound": "c1ccc(-c2nc3n(c2-c2ccc4c(c2)OCO4)CCC3)nc1", "Target of assay": "SK-MEL-2 melanoma", "Assigned class": "inactive"}
{"Compound": "COc1cc(F)ccc1-c1cc(Nc2cc(CS(C)(=N)=O)ccn2)ncc1F (stereo unspecified)", "Target of assay": "SK-MEL-2 melanoma", "Assigned class": "active"}
{"Compound": "CCOC(=O)c1sc(-c2ccc(OS(=O)(=O)C[C@]34CCC(CC3=O)C4(C)C)c(C=O)c2)nc1C", "Target of assay": "SK-MEL-2 melanoma", "Assigned class": "inactive"}
